Tested on: various cell lines of different tumor origins
Assay: Inhibition of cell proliferation, InCell Analyzer assay
Assay type: cell-based
Conditions: Homo sapiens, J-RT3-T3-5, J.RT3-T3.5, acute lymphoblastic leukaemia
Measurement type: IC50

COc1cc(N2CCC(N3CCCCC3)CC2)ccc1Nc1nccc(-c2c(-c3cccc(C(=O)Nc4c(F)cccc4F)c3)nc3ccccn23)n1 [Example 22] | 1000 to 5000 nM

----------
Tested on: various cell lines of different tumor origins
Assay: Inhibition of cell proliferation, InCell Analyzer assay
Format: cell-based
Settings: Homo sapiens, SNU-387, SNU-387, Liver
Protocol: C. Inhibition of Cell Proliferation For InCell Analyser assay, various cell lines of different tumor origins were grown to 70-80% confluency in appropriate culture media containing 10% fetal bovine serum at 37° C. in a 5% CO2 incubator. […] By counting the number of nuclei, the proliferation index of compound treated groups were calculated as a percentage relative to the DMSO control, which was set to 100%. The IC50 values were calculated using model 205 in ExcelFit.
pIC50: −log10 of the molar value.
Measurement type: pIC50

COc1cc(N2CCC(N3CCCCC3)CC2)ccc1Nc1nccc(-c2c(-c3cccc(C(=O)Nc4c(F)cccc4F)c3)nc3ccccn23)n1 | 5.30 to 6.00

----------
# IC50 annotations
Target: IR (NIH-3T3 cells over expressing human IGF-1R or IR) (Homo sapiens)
Sequence (P06213 28-1382): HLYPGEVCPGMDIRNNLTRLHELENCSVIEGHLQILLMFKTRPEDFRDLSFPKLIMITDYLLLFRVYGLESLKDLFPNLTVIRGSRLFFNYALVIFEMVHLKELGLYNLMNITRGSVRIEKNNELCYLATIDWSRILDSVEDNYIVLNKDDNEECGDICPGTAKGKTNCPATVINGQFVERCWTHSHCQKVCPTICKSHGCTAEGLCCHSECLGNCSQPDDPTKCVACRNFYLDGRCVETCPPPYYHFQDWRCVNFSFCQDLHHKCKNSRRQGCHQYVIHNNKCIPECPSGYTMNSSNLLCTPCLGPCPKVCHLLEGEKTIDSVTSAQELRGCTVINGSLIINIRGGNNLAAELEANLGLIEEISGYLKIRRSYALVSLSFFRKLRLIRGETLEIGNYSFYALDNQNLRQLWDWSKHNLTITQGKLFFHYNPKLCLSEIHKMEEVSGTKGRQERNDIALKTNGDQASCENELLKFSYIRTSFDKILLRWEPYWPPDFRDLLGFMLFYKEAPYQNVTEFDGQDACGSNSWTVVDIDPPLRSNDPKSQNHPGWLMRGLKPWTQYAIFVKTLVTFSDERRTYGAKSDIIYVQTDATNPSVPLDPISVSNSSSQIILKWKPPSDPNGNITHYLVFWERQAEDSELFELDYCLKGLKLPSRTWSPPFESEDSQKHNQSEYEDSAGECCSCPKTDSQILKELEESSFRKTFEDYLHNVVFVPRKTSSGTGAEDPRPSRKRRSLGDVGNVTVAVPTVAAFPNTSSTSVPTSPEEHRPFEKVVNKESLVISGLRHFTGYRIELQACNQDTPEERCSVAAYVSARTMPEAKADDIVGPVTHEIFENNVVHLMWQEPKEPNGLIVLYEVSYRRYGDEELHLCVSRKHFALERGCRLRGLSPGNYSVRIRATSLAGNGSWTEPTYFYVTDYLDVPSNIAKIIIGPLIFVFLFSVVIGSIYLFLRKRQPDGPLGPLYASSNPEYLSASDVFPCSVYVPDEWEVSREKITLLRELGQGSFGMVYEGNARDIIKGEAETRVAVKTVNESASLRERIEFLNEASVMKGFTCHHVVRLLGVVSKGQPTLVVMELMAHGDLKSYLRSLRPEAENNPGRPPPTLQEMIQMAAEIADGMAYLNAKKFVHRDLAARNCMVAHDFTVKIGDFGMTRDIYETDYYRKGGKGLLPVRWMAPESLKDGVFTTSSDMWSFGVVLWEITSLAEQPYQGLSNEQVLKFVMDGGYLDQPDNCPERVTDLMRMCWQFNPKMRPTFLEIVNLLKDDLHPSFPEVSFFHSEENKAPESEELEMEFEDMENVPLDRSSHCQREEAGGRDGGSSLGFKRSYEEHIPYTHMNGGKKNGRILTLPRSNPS
Experiment: IR cellular autophosphorylation (DELFIA)
Conditions: NIH-3T3 cells over expressing IR, insulin stimulated
Measurement type: IC50

COc1cc(N2CCC(N3CCN(CCF)CC3)CC2)c(OC)cc1Nc1nccc(-c2c(-c3cccc(C(=O)Nc4c(F)cccc4F)c3)nc3ccccn23)n1 [Example 111] | < 100 nM
COCCN1CCN(c2cc(OC)c(Nc3nccc(-c4c(-c5cccc(C(=O)Nc6c(F)cccc6F)c5)nc5ccccn45)n3)cc2C)CC1 [Example 243] | < 100 nM
COc1cc(N2CCC(N3CCN(CCS(C)(=O)=O)CC3)CC2)ccc1Nc1nccc(-c2c(-c3cccc(C(=O)Nc4c(F)cccc4F)c3)nc3c(C)cccn23)n1 [Example 67] | 100 to 500 nM

----------
Target: human IGF-1R (NIH-3T3 cells over expressing human IGF-1R) (Homo sapiens)
Experiment: IGF-1R cellular autophosphorylation (DELFIA)
Conditions: IGF-1 stimulated
# IC50 annotations
Measurement type: IC50

COc1cc(N2CCN(S(C)(=O)=O)CC2)c(C)cc1Nc1nccc(-c2c(-c3ccc(OC)c(C(=O)Nc4c(F)cccc4F)c3)nc3ccccn23)n1 | < 100 nM
CCOc1ccc(-c2nc3ccccn3c2-c2ccnc(Nc3ccc(N4CCC(N5CCCCC5)CC4)c(C)c3OC)n2)cc1C(=O)Nc1c(F)cccc1F | 100 to 500 nM
COc1cc(N2CCC(CCS(C)(=O)=O)CC2)ccc1Nc1nccc(-c2c(-c3cccc(C(=O)Nc4c(F)cccc4F)c3)nc3ccccn23)n1 | 100 to 500 nM
COc1cc(N2CCC(N3CCN(CCF)CC3)CC2)ccc1Nc1nccc(-c2c(-c3cccc(C(=O)Nc4c(F)cccc4F)c3)nc3cc(F)ccn23)n1 | < 100 nM
CCCc1cc(C2CCN(CCS(C)(=O)=O)CC2)ccc1Nc1nccc(-c2c(-c3ccc(OCC)c(C(=O)Nc4c(F)cccc4F)c3)nc3ccccn23)n1 | < 100 nM
Cc1cc(OC2CCN(C)CC2)ccc1Nc1nccc(-c2c(-c3cccc(C(=O)Nc4c(F)cccc4F)c3)nc3ccccn23)n1 | < 100 nM

----------
Target: human IGF-1R (NIH-3T3 cells over expressing human IGF-1R) (Homo sapiens, UniProt P08069)
Sequence (P08069 31-1367): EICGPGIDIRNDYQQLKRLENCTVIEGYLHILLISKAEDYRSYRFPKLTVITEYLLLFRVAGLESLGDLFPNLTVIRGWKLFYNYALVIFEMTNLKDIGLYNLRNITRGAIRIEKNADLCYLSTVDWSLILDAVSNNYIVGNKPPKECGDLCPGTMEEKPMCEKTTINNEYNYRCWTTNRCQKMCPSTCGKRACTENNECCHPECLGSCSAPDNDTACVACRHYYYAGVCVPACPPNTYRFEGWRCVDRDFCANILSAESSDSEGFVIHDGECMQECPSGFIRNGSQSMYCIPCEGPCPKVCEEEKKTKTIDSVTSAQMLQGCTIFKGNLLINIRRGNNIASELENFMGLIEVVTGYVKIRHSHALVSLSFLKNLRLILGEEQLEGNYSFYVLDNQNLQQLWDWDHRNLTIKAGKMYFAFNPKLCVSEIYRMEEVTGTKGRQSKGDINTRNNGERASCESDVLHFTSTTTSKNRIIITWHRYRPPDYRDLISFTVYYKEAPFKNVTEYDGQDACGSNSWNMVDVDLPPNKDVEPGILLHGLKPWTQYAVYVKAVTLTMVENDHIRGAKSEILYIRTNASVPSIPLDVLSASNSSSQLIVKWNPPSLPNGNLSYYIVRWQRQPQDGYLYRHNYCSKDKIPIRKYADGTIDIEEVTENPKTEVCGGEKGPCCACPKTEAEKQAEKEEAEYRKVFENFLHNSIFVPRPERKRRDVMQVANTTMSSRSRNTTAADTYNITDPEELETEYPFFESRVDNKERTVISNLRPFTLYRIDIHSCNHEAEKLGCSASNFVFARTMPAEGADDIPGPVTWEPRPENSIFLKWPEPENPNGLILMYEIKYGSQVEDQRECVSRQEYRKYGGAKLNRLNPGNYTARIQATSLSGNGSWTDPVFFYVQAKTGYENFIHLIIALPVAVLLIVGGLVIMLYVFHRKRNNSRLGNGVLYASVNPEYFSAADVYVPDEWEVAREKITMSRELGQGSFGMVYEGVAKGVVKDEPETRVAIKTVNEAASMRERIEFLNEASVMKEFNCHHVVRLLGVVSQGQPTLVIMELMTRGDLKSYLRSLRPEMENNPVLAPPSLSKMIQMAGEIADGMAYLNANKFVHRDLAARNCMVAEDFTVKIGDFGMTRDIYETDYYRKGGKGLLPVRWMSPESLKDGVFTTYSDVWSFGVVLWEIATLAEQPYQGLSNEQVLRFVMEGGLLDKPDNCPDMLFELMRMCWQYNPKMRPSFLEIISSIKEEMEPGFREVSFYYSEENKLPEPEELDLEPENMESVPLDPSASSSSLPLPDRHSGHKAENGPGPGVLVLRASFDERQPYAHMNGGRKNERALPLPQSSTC
Experiment: IGF-1R cellular autophosphorylation (DELFIA)
Conditions: IGF-1 stimulated
Measurement type: IC50

COc1cc(N2CCC(N3CCN(CCF)CC3)CC2)ccc1Nc1nccc(-c2c(-c3cccc(C(=O)Nc4c(F)cccc4F)c3)nc3c(C)cccn23)n1 | < 100 nM
COc1cc(N2CCC(N3CC[C@@H](F)C3)CC2)ccc1Nc1nccc(-c2c(-c3cccc(C(=O)Nc4c(F)cccc4F)c3)nc3ccccn23)n1 | < 100 nM
CCOc1ccc(-c2nc3ccccn3c2-c2ccnc(Nc3ccc(C4CCN(CC(C)C)CC4)cc3OC)n2)cc1C(=O)Nc1c(F)cccc1F | < 100 nM
COc1cc(N2CCC(N3CCN(CCF)CC3)CC2)c(Cl)cc1Nc1nccc(-c2c(-c3cccc(C(=O)Nc4c(F)cccc4F)c3)nc3ccccn23)n1 | < 100 nM
CCOc1cc(N2CCC(CCS(C)(=O)=O)CC2)c(CC)cc1Nc1nccc(-c2c(-c3ccc(OCC)c(C(=O)Nc4c(F)cccc4F)c3)nc3ccccn23)n1 | < 100 nM
CCOc1ccc(-c2nc3ccccn3c2-c2ccnc(Nc3cc(C)c(N4CCN(CCS(C)(=O)=O)CC4)cc3OC)n2)cc1C(=O)Nc1c(F)cccc1F | < 100 nM
Cc1ccn2c(-c3ccnc(Nc4cccc(OCCN(C)C)c4)n3)c(-c3cccc(C(=O)Nc4c(F)cccc4F)c3)nc2c1 | > 500 nM
COc1cc(N2CCOCC2)ccc1Nc1nccc(-c2c(-c3cccc(C(=O)Nc4c(F)cccc4F)c3)nc3ccccn23)n1 | < 100 nM
COc1cc(N2CCC(N3CCN(S(C)(=O)=O)CC3)CC2)c(C)cc1Nc1nccc(-c2c(-c3ccc(OC)c(C(=O)Nc4c(F)cccc4F)c3)nc3ccccn23)n1 | < 100 nM
Cc1c(CN2CCN(C)CC2)cccc1Nc1nccc(-c2c(-c3cccc(C(=O)Nc4c(F)cccc4F)c3)nc3ccccn23)n1 | < 100 nM
COc1cc(N2CCC(N3CCC[C@H](O)C3)CC2)ccc1Nc1nccc(-c2c(-c3ccc(OC)c(C(=O)Nc4c(F)cccc4F)c3)nc3ccccn23)n1 | < 100 nM
COc1ccc(N2CCC(N3CCCCC3)CC2)cc1Nc1nccc(-c2c(-c3ccc(OC)c(C(=O)Nc4c(F)cccc4F)c3)nc3ccccn23)n1 | < 100 nM
CC(C)Oc1cc(N2CCC(N3CCCCC3)CC2)ccc1Nc1nccc(-c2c(-c3cccc(C(=O)Nc4c(F)cccc4F)c3)nc3ccccn23)n1 | 100 to 500 nM

----------
Target: human IGF-1R (NIH-3T3 cells over expressing human IGF-1R) (Homo sapiens)
Assay: IGF-1R cellular autophosphorylation (DELFIA)
Settings: IGF-1 stimulated
Measurement type: IC50

COc1cc(N2CCC(N3CCN(CCF)CC3)CC2)c(C)cc1Nc1nccc(-c2c(-c3cccc(C(=O)Nc4c(F)cccc4F)c3)nc3ccccn23)n1 [Example 113] | < 100 nM
COc1cc(N2CCN(CCS(C)(=O)=O)CC2)c(C)cc1Nc1nccc(-c2c(-c3cccc(C(=O)Nc4c(F)cccc4F)c3)nc3ccccn23)n1 [Example 148] | < 100 nM
CCOc1ccc(-c2nc3ccccn3c2-c2ccnc(Nc3cc(C)c(C4CCN(CCS(C)(=O)=O)CC4)cc3OC)n2)cc1C(=O)Nc1c(F)cccc1F [Example 164] | < 100 nM
COc1cc(N2CCC(N3CCSCC3)CC2)ccc1Nc1nccc(-c2c(-c3cccc(C(=O)Nc4c(F)cccc4F)c3)nc3ccccn23)n1 [Example 85] | 100 to 500 nM
COc1cc(N2CCC(N3CCCCC3)CC2)c(Cl)cc1Nc1nccc(-c2c(-c3cccc(C(=O)Nc4c(F)cccc4F)c3)nc3ccccn23)n1 [Example 104] | < 100 nM

----------
Target: human IGF-1R (NIH-3T3 cells over expressing human IGF-1R) (Homo sapiens)
Experiment: IGF-1R cellular autophosphorylation (DELFIA)
Conditions: IGF-1 stimulated
Protocol: D. IGF-1R and IR Cellular Autophosphorylation (DELFIA) NIH-3T3 cells over expressing human IGF-1R or IR were plated in 96-well plates (10,000 cells/well) in culture media containing 10% fetal bovine serum and incubated at 37° C. in a 5% CO2 incubator. […] The fluorescence signal for cells treated with compounds was expressed as percent relative to 100% stimulation (IGF-1 or insulin stimulated signal). […]
# IC50 annotations
Measurement type: IC50

COc1cc(N2CCC(N3CCC(F)CC3)CC2)ccc1Nc1nccc(-c2c(-c3cccc(C(=O)Nc4c(F)cccc4F)c3)nc3ccccn23)n1 [Example 51] | < 100 nM
COc1cc(N2CCC(N3C[C@@H](C)O[C@@H](C)C3)CC2)ccc1Nc1nccc(-c2c(-c3cccc(C(=O)Nc4c(F)cccc4F)c3)nc3ccccn23)n1 [Example 47] | < 100 nM
COCCN(CCOC)C1CCN(c2ccc(Nc3nccc(-c4c(-c5cccc(C(=O)Nc6c(F)cccc6F)c5)nc5ccccn45)n3)c(OC)c2)CC1 [Example 49] | 100 to 500 nM

----------
Molecular target: IR (NIH-3T3 cells over expressing human IGF-1R or IR) (Homo sapiens)
Assay: IR cellular autophosphorylation (DELFIA)
Details: NIH-3T3 cells over expressing IR, insulin stimulated
pIC50: −log10 of the molar value.
# pIC50 annotations
Measurement type: pIC50

COc1cc(N2CCN(CCS(C)(=O)=O)[C@@H](C(C)C)C2)ccc1Nc1nccc(-c2c(-c3ccc(OC)c(C(=O)Nc4c(F)cccc4F)c3)nc3ccccn23)n1 [Example 250] | > 7.00
CCOc1cc(N2CCC(N3CCN(CC(F)F)CC3)CC2)ccc1Nc1nccc(-c2c(-c3cccc(C(=O)Nc4c(F)cccc4F)c3)nc3ccccn23)n1 [Example 117] | > 7.00
COc1cc(N2CCC(N3CCN4CCOC[C@@H]4C3)CC2)ccc1Nc1nccc(-c2c(-c3ccc(OC)c(C(=O)Nc4c(F)cccc4F)c3)nc3ccccn23)n1 [Example 88] | > 7.00
COc1cc(N2CCC(N3CCSCC3)CC2)ccc1Nc1nccc(-c2c(-c3cccc(C(=O)Nc4c(F)cccc4F)c3)nc3ccccn23)n1 [Example 85] | 6.30 to 7.00
